target: human NLRP3 (Homo sapiens, UniProt Q96P20); assay: Human PBMC NLRP3 Assay (LPS priming, ATP stimulation, cytokine measurement); type: cell-based; design: host or cells: human PBMCs (A2); human whole blood from healthy volunteers (A3); settings: Table B, activity class; human PBMC, LPS + ATP
Sequence (Q96P20 whole entry): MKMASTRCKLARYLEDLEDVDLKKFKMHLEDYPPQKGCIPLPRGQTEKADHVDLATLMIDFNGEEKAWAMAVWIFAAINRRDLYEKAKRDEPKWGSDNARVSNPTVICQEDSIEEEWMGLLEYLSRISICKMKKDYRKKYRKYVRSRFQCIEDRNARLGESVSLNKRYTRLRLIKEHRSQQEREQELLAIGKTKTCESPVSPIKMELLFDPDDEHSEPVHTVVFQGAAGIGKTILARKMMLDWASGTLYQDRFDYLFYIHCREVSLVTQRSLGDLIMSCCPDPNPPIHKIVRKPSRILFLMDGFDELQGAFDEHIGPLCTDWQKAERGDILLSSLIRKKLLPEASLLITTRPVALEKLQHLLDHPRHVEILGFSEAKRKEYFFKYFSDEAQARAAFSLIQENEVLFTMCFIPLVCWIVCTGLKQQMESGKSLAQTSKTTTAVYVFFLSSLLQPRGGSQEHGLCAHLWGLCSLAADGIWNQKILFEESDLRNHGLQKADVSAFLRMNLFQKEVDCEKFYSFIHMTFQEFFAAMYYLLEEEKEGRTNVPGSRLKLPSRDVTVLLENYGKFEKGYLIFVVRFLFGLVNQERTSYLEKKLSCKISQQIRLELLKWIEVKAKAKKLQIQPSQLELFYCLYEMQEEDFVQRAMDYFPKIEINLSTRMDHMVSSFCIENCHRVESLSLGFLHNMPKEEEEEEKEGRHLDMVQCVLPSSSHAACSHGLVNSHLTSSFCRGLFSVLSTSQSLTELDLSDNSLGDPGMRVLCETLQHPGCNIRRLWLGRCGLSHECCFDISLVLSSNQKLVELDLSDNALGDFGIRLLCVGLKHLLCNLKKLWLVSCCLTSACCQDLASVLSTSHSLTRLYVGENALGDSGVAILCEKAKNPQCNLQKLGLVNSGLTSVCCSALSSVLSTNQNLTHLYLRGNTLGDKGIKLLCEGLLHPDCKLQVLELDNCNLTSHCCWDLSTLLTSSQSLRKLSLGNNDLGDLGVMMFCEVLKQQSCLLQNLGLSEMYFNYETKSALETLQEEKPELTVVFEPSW
Exercise: state measured IC50 for each of the compounds provided.

Fill in the recorded IC50 for this compound, with human NLRP3 (Homo sapiens, UniProt Q96P20) as test system: C[C@@H]1CCN(c2nnn[nH]2)C[C@H](NC(=O)N(C)c2ccc(C(F)F)cc2F)C1 (single isomer, unassigned) [18A*]
< 10 nM

Continue with C[C@@H]1C[C@@H](NC(=O)N(C)c2ccc(OC(F)F)c(F)c2)[C@H]2CC[C@@H]1N2c1nnn[nH]1 (single isomer, unassigned) [52A*]
10 to 100 nM

Continue with C[C@@H]1CCN(c2nnn[nH]2)C[C@H](NC(=O)N(C)c2ccc(Cl)cc2F)C1 (single isomer, unassigned)
< 10 nM

Continue with C[C@@H]1CCN(c2nnn[nH]2)C[C@H](NC(=O)N(C)c2ccc(C(F)(F)F)c(F)c2)C1 (single isomer, unassigned)
10 to 100 nM

Continue with C[C@@H]1CCN(c2nnn[nH]2)C[C@H](NC(=O)N(C)c2ccc(C3CC3)c(F)c2)C1 (single isomer, unassigned) [23A*]
< 10 nM

Continue with C[C@@H]1CCN(c2nnn[nH]2)C[C@H](NC(=O)N(C)c2ccc(OC(F)(F)F)c(F)c2)C1 (single isomer, unassigned) [14A*]
10 to 100 nM

----------
Exercise: state measured IC50 for each of the compounds provided.
molecular target: human NLRP3 (Homo sapiens, UniProt Q96P20); assay: Human Whole Blood (hWB) NLRP3 Assay (LPS/ATP, IL-1β); type: cell-based; set-up: host or cells: human whole blood from healthy volunteers (A3); conditions: Table B, activity class

What value of IC50 has been reported for the following compound? C[C@@H]1C[C@@H](NC(=O)N(C)c2ccc(OC(F)(F)F)cc2F)[C@H]2CC[C@@H]1N2c1nnn[nH]1 (single isomer, unassigned) [56A*]
< 1000 nM

Continue with C[C@@H]1CCN(c2nnn[nH]2)C[C@H](NC(=O)N(C)c2ccc(OC(F)(F)F)cc2F)C1 (single isomer, unassigned) [24A*]
< 1000 nM

Continue with C[C@@H]1C[C@@H](NC(=O)N(C)c2ccc(OC(F)(F)F)cc2)[C@H]2CC[C@@H]1N2c1nnn[nH]1 (single isomer, unassigned) [45A*]
< 1000 nM

Continue with C[C@@H]1C[C@@H](NC(=O)N(C)c2ccc(OC(F)(F)F)c(F)c2)[C@H]2CC[C@@H]1N2c1nnn[nH]1 (single isomer, unassigned) [51A*]
1000 to 2000 nM

Continue with CCN(C(=O)N[C@@H]1C[C@H](C)CCN(c2nnn[nH]2)C1)c1ccc(OC(F)(F)F)cc1 (single isomer, unassigned) [43A*]
< 1000 nM

Continue with CCN(C(=O)N[C@@H]1C[C@@H](C)[C@@H]2CC[C@H]1N2c1nnn[nH]1)c1ccc(OC(F)F)cc1F (single isomer, unassigned) [65A*]
< 1000 nM

Continue with C[C@@H]1C[C@@H](NC(=O)N(C)c2ccc(C(F)(F)F)c(F)c2F)[C@H]2CC[C@@H]1N2c1nnn[nH]1 (single isomer, unassigned) [47A*]
1000 to 2000 nM

Continue with C[C@@H]1CCN(c2nnn[nH]2)C[C@H](NC(=O)N(C)c2ccc(OC(F)(F)F)c(OC(F)F)c2)C1 (single isomer, unassigned) [25A*]
1000 to 2000 nM

----------
Exercise: state measured IC50 for each of the compounds provided.
biological target: human NLRP3 (Homo sapiens, UniProt Q96P20); experiment: Scintillation Proximity (SPA) NLRP3 Assay, displacement of 3H-MCC950; format: binding; conditions: Table B, activity class; displacement of 3H-MCC950 from human NLRP3

What value of IC50 has been reported for the following compound? C[C@@H]1CCN(c2nnn[nH]2)C[C@H](NC(=O)N(C)c2cnc(C(F)(F)F)nc2)C1 (single isomer, unassigned) [31A*]
10 to 50 µM

Continue with C[C@@H]1CCN(c2nnn[nH]2)C[C@@H](NC(=O)N(C)c2c(F)cc(OC(F)(F)F)cc2F)C1 (single isomer, unassigned) [41B*]
1 to 10 µM

Continue with C[C@@H]1CCN(c2nnn[nH]2)C[C@H](NC(=O)N(C)c2ccc(Cl)nc2)C1 (single isomer, unassigned) [29A*]
1 to 10 µM

Continue with C[C@H]1CCN(c2nnn[nH]2)C[C@@H](NC(=O)N(C)c2ccc(OC(F)F)c(F)c2)C1 (single isomer, unassigned) [15D*]
1 to 10 µM

Continue with C[C@@H]1CCN(c2nnn[nH]2)C[C@H](NC(=O)N(C)c2ccc(C(F)(F)F)c(F)c2)C1 (single isomer, unassigned)
< 1 µM

Continue with C[C@H]1C[C@H](NC(=O)N(C)c2c(F)cc(OC(F)(F)F)cc2F)[C@@H]2CC[C@H]1N2c1nnn[nH]1 (single isomer, unassigned) [62D*]
50 to 100 µM

----------
target: mouse NLRP3 (Mus musculus); construct: from tissue; host or cells: whole blood of female CD1 mice; assay: Mouse Whole Blood (mWB) NLRP3 Assay (LPS/ATP, IL-1b); type: cell-based; settings: Table C
Sequence (Q8R4B8 whole entry): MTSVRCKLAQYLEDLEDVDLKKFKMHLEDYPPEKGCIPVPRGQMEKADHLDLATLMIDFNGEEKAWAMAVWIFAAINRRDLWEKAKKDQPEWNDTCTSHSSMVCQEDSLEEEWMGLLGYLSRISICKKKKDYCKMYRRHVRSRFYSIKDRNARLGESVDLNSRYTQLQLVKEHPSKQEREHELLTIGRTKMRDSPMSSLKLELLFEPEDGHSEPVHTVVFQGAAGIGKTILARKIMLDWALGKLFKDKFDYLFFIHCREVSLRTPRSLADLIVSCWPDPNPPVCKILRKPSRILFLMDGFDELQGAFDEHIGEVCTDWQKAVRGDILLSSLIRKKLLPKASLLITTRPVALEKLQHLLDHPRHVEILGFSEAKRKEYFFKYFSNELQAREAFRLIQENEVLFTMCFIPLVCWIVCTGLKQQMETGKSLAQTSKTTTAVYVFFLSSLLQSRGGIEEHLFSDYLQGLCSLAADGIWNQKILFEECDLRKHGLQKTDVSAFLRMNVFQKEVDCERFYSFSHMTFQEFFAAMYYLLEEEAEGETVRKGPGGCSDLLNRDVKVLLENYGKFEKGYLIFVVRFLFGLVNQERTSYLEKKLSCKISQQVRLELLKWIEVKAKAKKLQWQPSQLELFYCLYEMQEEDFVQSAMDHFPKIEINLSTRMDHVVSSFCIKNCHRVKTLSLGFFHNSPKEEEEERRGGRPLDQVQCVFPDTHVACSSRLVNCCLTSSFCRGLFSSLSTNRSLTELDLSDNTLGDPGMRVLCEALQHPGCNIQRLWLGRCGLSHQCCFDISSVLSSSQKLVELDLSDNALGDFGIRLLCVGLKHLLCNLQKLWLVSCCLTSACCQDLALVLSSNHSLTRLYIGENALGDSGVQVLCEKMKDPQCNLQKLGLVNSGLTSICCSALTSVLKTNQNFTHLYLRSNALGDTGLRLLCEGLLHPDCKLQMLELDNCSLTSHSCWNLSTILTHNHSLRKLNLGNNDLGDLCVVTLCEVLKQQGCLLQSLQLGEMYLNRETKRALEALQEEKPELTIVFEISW
MEASURED QUANTITY: IC50 (nM)
State the answer as a number, implicitly in nM.

What value of IC50 has been reported for the following compound? C[C@@H]1CCN(c2nnn[nH]2)C[C@H](NC(=O)N(C)c2ccc(OC(F)F)cc2)C1 (single isomer, unassigned) [11A*]
26

Continue with C[C@@H]1CCN(c2nnn[nH]2)C[C@H](NC(=O)N(C)c2ccc(Cl)cc2)C1 (single isomer, unassigned)
40

Continue with C[C@@H]1CCN(c2nnn[nH]2)C[C@H](NC(=O)N(C)c2ccc(OC(F)(F)F)cc2)C1 (single isomer, unassigned) [10A*]
95

----------
target: human NLRP3 (Homo sapiens, UniProt Q96P20); test: Human PBMC NLRP3 Assay (LPS priming, ATP stimulation, cytokine measurement); type: cell-based; design: host or cells: human PBMCs (A2); human whole blood from healthy volunteers (A3); conditions: Table B, activity class; human PBMC, LPS + ATP
MEASURED QUANTITY: IC50

What value of IC50 has been reported for the following compound? "CN(C(=O)N[C@@H]1CCCN(c2nnn[nH]2)C1)c1ccc(Cl)cc1F"
> 500 nM

Continue with C[C@@H]1C[C@@H](NC(=O)N(C)c2ccc(OC(F)F)cc2)[C@H]2CC[C@@H]1N2c1nnn[nH]1 (single isomer, unassigned) [42A*]
< 10 nM

Continue with C[C@@H]1C[C@@H](NC(=O)N(C)c2ccc(OC(F)F)cc2F)[C@H]2CC[C@@H]1N2c1nnn[nH]1 (single isomer, unassigned) [57A*]
< 10 nM

Continue with C[C@@H]1CCN(c2nnn[nH]2)C[C@H](NC(=O)N(C)c2ccc(C(F)(F)F)cc2F)C1 (single isomer, unassigned) [13A*]
< 10 nM

----------
Exercise: state measured IC50 for each of the molecules provided.
molecular target: human NLRP3 (Homo sapiens); test: Human Whole Blood (hWB) NLRP3 Assay (LPS/ATP, IL-1β); format: cell-based; parameters: host or cells: human whole blood from healthy volunteers (A3); conditions: Table B, activity class

What value of IC50 has been reported for the following molecule? C[C@@H]1CCN(c2nnn[nH]2)C[C@H](NC(=O)N(C)c2c(F)cc(OC(F)F)cc2F)C1 (single isomer, unassigned) [19A*]
< 1000 nM

Continue with C[C@@H]1C[C@@H](NC(=O)N(C)c2ccc(OC(F)F)c(F)c2)[C@H]2CC[C@@H]1N2c1nnn[nH]1 (single isomer, unassigned) [52A*]
< 1000 nM

Continue with C[C@@H]1CCN(c2nnn[nH]2)C[C@H](NC(=O)N(CC2CC2)c2ccc(OC(F)(F)F)cc2)C1 (single isomer, unassigned) [44A*]
2000 to 3000 nM

----------
Molecular target: human NLRP3 (Homo sapiens)
Assay: Human Whole Blood (hWB) NLRP3 Assay (LPS/ATP, IL-1β)
Type: cell-based
Design: host or cells: human whole blood from healthy volunteers (A3)
Details: Table B, activity class
Method: Human whole blood is drawn from healthy volunteers after obtaining written informed consent. Heparin lithium coated tubes are used to collect blood from volunteers. Blood samples are distributed on 96 well plates using 90 μl per well. […] Activation is then performed by adding 3.3 μl of a 31×ATP solution per well. […] IL-1β levels in the supernatant were analyzed using a mesoscale discovery assay (MSD K151TUK) according to the manufacturers' instructions. […]
pIC50: −log10 of the molar value.
Exercise: state measured pIC50 for each of the compounds provided.

What value of pIC50 has been reported for the following compound? C[C@@H]1CCN(c2nnn[nH]2)C[C@H](NC(=O)N(C)c2ccc(OC(F)F)cc2F)C1 (single isomer, unassigned) [17A*]
5.70 to 6.00

Continue with C[C@@H]1C[C@@H](NC(=O)N(C)c2ccc(OC(F)(F)F)c(OC(F)F)c2)[C@H]2CC[C@@H]1N2c1nnn[nH]1 (single isomer, unassigned) [63A*]
5.52 to 5.70

Continue with C[C@@H]1C[C@@H](NC(=O)N(C)c2ccc(C(F)(F)F)c(F)c2)[C@H]2CC[C@@H]1N2c1nnn[nH]1 (single isomer, unassigned) [49A*]
5.70 to 6.00

Ref: patent US20260008768A1
